The entries below come with measured growth inhibition values attached.
System: MKL-1
protocol.details: growth inhibition relative to DMSO control (fraction); higher = stronger growth inhibition
conditions: GSK-LSD1 concentration 0 nM; partner concentration 10000 nM; treatment time: 6 days
Output: the number by itself.

compound	measurement.kind	reported.value
c1ccc([C@@H]2C[C@H]2NC2CCNCC2)cc1 [GSK-LSD1] + CN1CCN(c2ccc(-c3cccc(CN4CCOCC4)c3)cc2NC(=O)c2c[nH]c(=O)cc2C(F)(F)F)CC1 [OICR9429]	growth inhibition	-0.00949

Notebook: c1ccc([C@@H]2C[C@H]2NC2CCNCC2)cc1 [GSK-LSD1] + Cc1cc2c(cc1N1C(=O)c3cccc4c(CCCO)ccc(c34)C1=O)n(C)c(=O)n2C [BAY299] , growth inhibition read as 0.999

Notebook: c1ccc([C@@H]2C[C@H]2NC2CCNCC2)cc1 [GSK-LSD1] + Cc1sc2c(c1C)C(c1ccc(Cl)cc1)=N[C@@H](CC(=O)OC(C)(C)C)c1nnc(C)n1-2 [(+)-JQ1] , growth inhibition read as 0.997

* * *

The entries below come with measured cell viability values attached.
Tested on: PeTa
protocol.details: cell viability relative to DMSO control; higher = less growth inhibition
conditions: log10 concentration (M): -11; treatment time: 6 days
Kindly provide the numeric value in % only, without the unit symbol.

Worked cases, cell viability given:
compound	cell viability (%)
CN1CCN(c2ccc(-c3cccc(CN4CCOCC4)c3)cc2NC(=O)c2c[nH]c(=O)cc2C(F)(F)F)CC1	126
c1ccc([C@@H]2C[C@H]2NC2CCNCC2)cc1	99.1
CCOC(=O)NCCCC(=O)NCCc1ccccc1 [Santacruzamate A]	103

Simply: Nc1ccccc1NC(=O)c1ccc(CNC(=O)OCc2cccnc2)cc1 , PeTa, cell viability = 108

Simply: N[C@H]1CC[C@H](N[C@@H]2C[C@H]2c2ccccc2)CC1 , PeTa, cell viability = 97.6

* * *

The entries below come with measured growth inhibition values attached.
System: MKL-1
protocol.details: growth inhibition relative to DMSO control (fraction); higher = stronger growth inhibition
conditions: GSK-LSD1 concentration 100 nM; partner concentration 0 nM; treatment time: 6 days

compound	growth inhibition
c1ccc([C@@H]2C[C@H]2NC2CCNCC2)cc1 [GSK-LSD1] + Cc1cc2c(cc1N1C(=O)c3cccc4c(CCCO)ccc(c34)C1=O)n(C)c(=O)n2C [BAY299]	0.753
c1ccc([C@@H]2C[C@H]2NC2CCNCC2)cc1 [GSK-LSD1] + CCOC(=O)NCCCC(=O)NCCc1ccccc1 [Santacruzamate A]	0.748
c1ccc([C@@H]2C[C@H]2NC2CCNCC2)cc1 [GSK-LSD1] + Nc1ccccc1NC(=O)c1ccc(CNC(=O)OCc2cccnc2)cc1 [Entinostat]	0.761

Notebook: c1ccc([C@@H]2C[C@H]2NC2CCNCC2)cc1 [GSK-LSD1] + CN1CCN(c2ccc(-c3cccc(CN4CCOCC4)c3)cc2NC(=O)c2c[nH]c(=O)cc2C(F)(F)F)CC1 [OICR9429] , growth inhibition read as 0.717

Notebook: c1ccc([C@@H]2C[C@H]2NC2CCNCC2)cc1 [GSK-LSD1] + Cc1sc2c(c1C)C(c1ccc(Cl)cc1)=N[C@@H](CC(=O)OC(C)(C)C)c1nnc(C)n1-2 [(+)-JQ1] , growth inhibition read as 0.792

Notebook: c1ccc([C@@H]2C[C@H]2NC2CCNCC2)cc1 [GSK-LSD1] + O=C(NC[C@H](O)CN1CCc2ccccc2C1)c1ccnc(NC2CCC2)c1 [GSK591] , growth inhibition read as 0.733

* * *

System: PeTa
protocol.details: growth inhibition relative to DMSO control (fraction); higher = stronger growth inhibition
conditions: GSK-LSD1 concentration 1 nM; partner concentration 100 nM; treatment time: 6 days
measurement.kind: growth inhibition
Output: the number by itself.

Worked cases, growth inhibition given:
molecule	growth inhibition
c1ccc([C@@H]2C[C@H]2NC2CCNCC2)cc1 [GSK-LSD1] + CCOC(=O)NCCCC(=O)NCCc1ccccc1 [Santacruzamate A]	0.0494
c1ccc([C@@H]2C[C@H]2NC2CCNCC2)cc1 [GSK-LSD1] + Cc1cc2c(cc1N1C(=O)c3cccc4c(CCCO)ccc(c34)C1=O)n(C)c(=O)n2C [BAY299]	0.0174
c1ccc([C@@H]2C[C@H]2NC2CCNCC2)cc1 [GSK-LSD1] + Cc1sc2c(c1C)C(c1ccc(Cl)cc1)=N[C@@H](CC(=O)OC(C)(C)C)c1nnc(C)n1-2 [(+)-JQ1]	0.67
c1ccc([C@@H]2C[C@H]2NC2CCNCC2)cc1 [GSK-LSD1] + CN1CCN(c2ccc(-c3cccc(CN4CCOCC4)c3)cc2NC(=O)c2c[nH]c(=O)cc2C(F)(F)F)CC1 [OICR9429]	-0.0748
c1ccc([C@@H]2C[C@H]2NC2CCNCC2)cc1 [GSK-LSD1] + O=C(NC[C@H](O)CN1CCc2ccccc2C1)c1ccnc(NC2CCC2)c1 [GSK591]	0.201

Attention now turns to another entry.
Notebook: c1ccc([C@@H]2C[C@H]2NC2CCNCC2)cc1 [GSK-LSD1] + Nc1ccccc1NC(=O)c1ccc(CNC(=O)OCc2cccnc2)cc1 [Entinostat] , growth inhibition read as 0.975

* * *

System: MKL-1
protocol.details: growth inhibition relative to DMSO control (fraction); higher = stronger growth inhibition
conditions: GSK-LSD1 concentration 1 nM; partner concentration 10000 nM; treatment time: 6 days
measurement.kind: growth inhibition
Output: the number by itself.

Worked cases, growth inhibition given:
molecule	growth inhibition
c1ccc([C@@H]2C[C@H]2NC2CCNCC2)cc1 [GSK-LSD1] + CCOC(=O)NCCCC(=O)NCCc1ccccc1 [Santacruzamate A]	0.014
c1ccc([C@@H]2C[C@H]2NC2CCNCC2)cc1 [GSK-LSD1] + Cc1cc2c(cc1N1C(=O)c3cccc4c(CCCO)ccc(c34)C1=O)n(C)c(=O)n2C [BAY299]	0.999
c1ccc([C@@H]2C[C@H]2NC2CCNCC2)cc1 [GSK-LSD1] + CN1CCN(c2ccc(-c3cccc(CN4CCOCC4)c3)cc2NC(=O)c2c[nH]c(=O)cc2C(F)(F)F)CC1 [OICR9429]	0.0783
c1ccc([C@@H]2C[C@H]2NC2CCNCC2)cc1 [GSK-LSD1] + O=C(NC[C@H](O)CN1CCc2ccccc2C1)c1ccnc(NC2CCC2)c1 [GSK591]	0.432
c1ccc([C@@H]2C[C@H]2NC2CCNCC2)cc1 [GSK-LSD1] + Nc1ccccc1NC(=O)c1ccc(CNC(=O)OCc2cccnc2)cc1 [Entinostat]	1

Attention now turns to another entry.
Notebook: c1ccc([C@@H]2C[C@H]2NC2CCNCC2)cc1 [GSK-LSD1] + Cc1sc2c(c1C)C(c1ccc(Cl)cc1)=N[C@@H](CC(=O)OC(C)(C)C)c1nnc(C)n1-2 [(+)-JQ1] , growth inhibition read as 0.998

* * *

Test system: HDFB
protocol.details: growth inhibition relative to DMSO control (fraction); higher = stronger growth inhibition
conditions: GSK-LSD1 concentration 1 nM; partner concentration 0 nM; treatment time: 6 days
measurement.kind: growth inhibition
Output: the number by itself.

compound	measurement.kind	reported.value
c1ccc([C@@H]2C[C@H]2NC2CCNCC2)cc1 [GSK-LSD1] + Cc1cc2c(cc1N1C(=O)c3cccc4c(CCCO)ccc(c34)C1=O)n(C)c(=O)n2C [BAY299]	growth inhibition	-0.0232
c1ccc([C@@H]2C[C@H]2NC2CCNCC2)cc1 [GSK-LSD1] + Cc1sc2c(c1C)C(c1ccc(Cl)cc1)=N[C@@H](CC(=O)OC(C)(C)C)c1nnc(C)n1-2 [(+)-JQ1]	growth inhibition	0.0649
c1ccc([C@@H]2C[C@H]2NC2CCNCC2)cc1 [GSK-LSD1] + Nc1ccccc1NC(=O)c1ccc(CNC(=O)OCc2cccnc2)cc1 [Entinostat]	growth inhibition	0.0914
c1ccc([C@@H]2C[C@H]2NC2CCNCC2)cc1 [GSK-LSD1] + O=C(NC[C@H](O)CN1CCc2ccccc2C1)c1ccnc(NC2CCC2)c1 [GSK591]	growth inhibition	-0.00486
c1ccc([C@@H]2C[C@H]2NC2CCNCC2)cc1 [GSK-LSD1] + CCOC(=O)NCCCC(=O)NCCc1ccccc1 [Santacruzamate A]	growth inhibition	0.0274

Attention now turns to another entry.
Notebook: c1ccc([C@@H]2C[C@H]2NC2CCNCC2)cc1 [GSK-LSD1] + CN1CCN(c2ccc(-c3cccc(CN4CCOCC4)c3)cc2NC(=O)c2c[nH]c(=O)cc2C(F)(F)F)CC1 [OICR9429] , growth inhibition read as 0.0144

* * *

Tested on: PeTa
protocol.details: growth inhibition relative to DMSO control (fraction); higher = stronger growth inhibition
conditions: GSK-LSD1 concentration 1 nM; partner concentration 1000 nM; treatment time: 6 days
Quick rule for you: growth inhibition at 0.8 or higher means Criterion met, lower means Criterion not met.

For orientation, consider the following solved cases.
compound	assay.target	discrete.label
c1ccc([C@@H]2C[C@H]2NC2CCNCC2)cc1 [GSK-LSD1] + CN1CCN(c2ccc(-c3cccc(CN4CCOCC4)c3)cc2NC(=O)c2c[nH]c(=O)cc2C(F)(F)F)CC1 [OICR9429]	PeTa	Criterion not met
c1ccc([C@@H]2C[C@H]2NC2CCNCC2)cc1 [GSK-LSD1] + Cc1cc2c(cc1N1C(=O)c3cccc4c(CCCO)ccc(c34)C1=O)n(C)c(=O)n2C [BAY299]	PeTa	Criterion not met
c1ccc([C@@H]2C[C@H]2NC2CCNCC2)cc1 [GSK-LSD1] + O=C(NC[C@H](O)CN1CCc2ccccc2C1)c1ccnc(NC2CCC2)c1 [GSK591]	PeTa	Criterion not met

# check: growth inhibition of c1ccc([C@@H]2C[C@H]2NC2CCNCC2)cc1 [GSK-LSD1] + Cc1sc2c(c1C)C(c1ccc(Cl)cc1)=N[C@@H](CC(=O)OC(C)(C)C)c1nnc(C)n1-2 [(+)-JQ1] is greater than or equal to 0.8
Criterion met

# check: growth inhibition of c1ccc([C@@H]2C[C@H]2NC2CCNCC2)cc1 [GSK-LSD1] + CCOC(=O)NCCCC(=O)NCCc1ccccc1 [Santacruzamate A] is greater than or equal to 0.8
Criterion not met

# check: growth inhibition of c1ccc([C@@H]2C[C@H]2NC2CCNCC2)cc1 [GSK-LSD1] + Nc1ccccc1NC(=O)c1ccc(CNC(=O)OCc2cccnc2)cc1 [Entinostat] is greater than or equal to 0.8
Criterion met
